The measurements presented in this section are drawn from patent EP0250755A2.

# Tested on: human premyeloblast leukemia cells (HL-60)
# Experimental details: Proliferation-suppression rate of HL-60 cells (Coulter counter, 4 days cultivation)
# Assay type: cell-based
# Particulars: 96 h, Concn. 10 ng/mL, HL-60, 4 days
Below, each entry is listed alongside its reported inhibition at 10 ng/mL.
Give just the number in %; leave the unit off.

Known inhibition at 10 ng/mL results, listed for orientation:
C=C1/C(=C\C=C2/CCC[C@]3(C)[C@@H]([C@H](C)C[C@@H](O)CC(O)(C(F)(F)F)C(F)(F)F)CC[C@@H]23)C[C@@H](O)C[C@@H]1O [Compound 28a]; 92.2
C=C1/C(=C\C=C2/CCC[C@]3(C)[C@@H]([C@H](C)CC[C@H](O)C(O)(C(F)(F)F)C(F)(F)F)CC[C@@H]23)C[C@@H](O)C[C@@H]1O [Compound 6a]; 83.7
C=C1/C(=C\C=C2/CCC[C@]3(C)[C@@H]([C@H](C)CCC(=O)C(O)(C(F)(F)F)C(F)(F)F)CC[C@@H]23)C[C@@H](O)C[C@@H]1O [Compound 10]; 89.9
C=C1/C(=C\C=C2/CCC[C@]3(C)[C@@H]([C@H](C)CCCC(C)(C)O)CC[C@@H]23)C[C@@H](O)C[C@@H]1O [1α,25-(OH)2D3, 1α,25-Dihydroxyvitamin D3, reference compound]; 72.4
C=C1/C(=C\C=C2/CCC[C@]3(C)[C@@H]([C@H](C)C[C@H](O)CC(O)(C(F)(F)F)C(F)(F)F)CC[C@@H]23)C[C@@H](O)C[C@@H]1O [Compound 28b]; 86.9

// query Quick one: inhibition at 10 ng/mL for C=C1/C(=C\C=C2/CCC[C@]3(C)[C@@H]([C@H](C)CC[C@@H](O)C(O)(C(F)(F)F)C(F)(F)F)CC[C@@H]23)C[C@@H](O)C[C@@H]1O [Compound 6b] ?
// result 90.4
